# soluble fraction (log2) values compiled below
- METHOD_NOTES: soluble fraction after stress (log2 fold change); higher = more stays soluble; pooled small domains, quantitative proteomics;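 note: 20 min heating vs room temperature control held 20 min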
- RECORDED_CONDITIONS: stress: 75 degC
Keep it simple and answer with nothing but the number.

Reference set, count: 6
sequence_code=HMEEIDLTPAEEILNKLPDNSRGYLIPTLNKIQNAYRFLPDPAMELLMEFFNVSRAEIFGVISFYPQLMI quantity_kind="soluble fraction (log2)" readout_value=-0.127
sequence_code=HMKKTAAKVLGESEGKPVTVQSGRYGPYVQLGSIRATLPKDLEQDDVTLDRALELISAKAERAGK quantity_kind="soluble fraction (log2)" readout_value=-0.0332
sequence_code=HMNSRAERKEAAKEAIRNLLREGMTFEELTGPWLEKRFAEEPFNRGARSWQMLISEIKEEPEFQHL quantity_kind="soluble fraction (log2)" readout_value=-0.014
sequence_code=HMDLDSGVAVLRTLMSQHNLQTDDFQNEIGGKSMVSMILNGTRKLSKNHIQALSGRFNLSPALFF quantity_kind="soluble fraction (log2)" readout_value=-0.819
sequence_code=HMIINFDAIRLTTELNKYNRHKAIPNSFFDGTFTILDVRDLYDSLSPKVQKIADTLIEQYNVDVKQ quantity_kind="soluble fraction (log2)" readout_value=-1.82
sequence_code=HMEGTEILVNIRKGMTKEEIASLLVSKGLVEDKNTFLVQTALYTSDRYPIQPGSYTLNTAQTPEEMLAVMT quantity_kind="soluble fraction (log2)" readout_value=-0.0935

Q) Endpoint output: soluble fraction (log2) of HMDEFHLSERERQILNLLVLGHTYKHIASDLNIAYATVNKHVSNVYAKLRVQSASEAVALAIRKGL . Value?
A) -0.992

Q) Endpoint output: soluble fraction (log2) of HMRGLFTVYMVGEKASRVGELDEEMVYESRIGDVFALGATSWRIEEITHDRVLVSPAYGQPGRLPFWH . Value?
A) -2.13

Q) Endpoint output: soluble fraction (log2) of HMALPDSEKRQWLVDEVNERGLKLPDDVLEYLFARVGRSQAHLVDVIEKLDFESLAQSRKLTIPFVREVLK . Value?
A) -0.225

Q) Endpoint output: soluble fraction (log2) of HMNIIMLGEFIKEQRIKRKMTQEYLASELGISRPTYSQIELGTRELTIPEARKMAAIFNISLEDFLAEKE . Value?
A) -2.35

Q) Endpoint output: soluble fraction (log2) of HMNRPQDLGEPYDGQFREHPEAWAFYAAQSPSYRRSASWWVLGAKQEVTRQRRLAALIDASAQGTRIPALT . Value?
A) -1.8
